System: SN12C renal
Method Description: NCI tumour cell line growth inhibition, 48 h
Reported Endpoint: TGI

Below: 5 compounds and their reported TGI.
Requested read-out: TGI. Entry: c1cc2ccc3cc2cc1CNCCOCCNCc1ccc2ccc(cc2c1)CNCCOCCNC3
> 100 µM

Requested read-out: TGI. Entry: NC(=O)c1ccccc1NC(=O)C(=O)Nc1n[nH]c(N)n1
> 100 µM

Requested read-out: TGI. Entry: CC(=O)N1N=C(c2ccccc2Nc2ccccc2C2=NN(C(C)=O)C(c3ccccc3)O2)OC1c1ccccc1 (configuration not stated)
> 100 µM

Requested read-out: TGI. Entry: CC(C)(C)c1cc(Oc2ccc(C#N)c(C#N)c2)cc(C(C)(C)C)c1
> 100 µM

Requested read-out: TGI. Entry: CC1(C)CC(=O)C(CC2C(=O)c3ccccc3C2=O)C(=O)C1C(=O)C(=O)Nc1cccc2ccc(O)cc12 (configuration not stated)
> 100 µM

For each of the items listed, what is its TGI?
1. Cc1ccc(-n2nnc3c(sc4ccccc43)c2=O)cc1
2. O=CN1CCN(C(=O)c2ccc(Cl)cc2)C1=S
3. Cc1no[n+]([O-])c1/C=N/NS(=O)(=O)c1ccccc1
4. O=C(NCCSSCCNC(=O)/C(Cc1ccc(O)c(Br)c1)=N/O)/C(Cc1ccc(O)c(Br)c1)=N/O
5. Cc1ccc2c(n1)C(=O)C(Cl)=C(Nc1ccc(N3CCN(C)CC3)cc1)C2=O
6. Clc1ccc(/C=C/c2nc(-c3ccc(Cl)cc3)cn3c2nc2ccccc23)cc1

1. > 100 µM
2. 28 µM
3. > 100 µM
4. 5.73 µM
5. 3.1 µM
6. > 100 µM
